Molecular target: hAhR (Homo sapiens, UniProt P35869)
Construct: Stably integrated DRE-luciferase cell lines were generated by transducing the both cell lines with Cignal XRE luciferase reporter (Qiagen) lentiviral particles; endogenous in cells
Sequence (P35869 11-848): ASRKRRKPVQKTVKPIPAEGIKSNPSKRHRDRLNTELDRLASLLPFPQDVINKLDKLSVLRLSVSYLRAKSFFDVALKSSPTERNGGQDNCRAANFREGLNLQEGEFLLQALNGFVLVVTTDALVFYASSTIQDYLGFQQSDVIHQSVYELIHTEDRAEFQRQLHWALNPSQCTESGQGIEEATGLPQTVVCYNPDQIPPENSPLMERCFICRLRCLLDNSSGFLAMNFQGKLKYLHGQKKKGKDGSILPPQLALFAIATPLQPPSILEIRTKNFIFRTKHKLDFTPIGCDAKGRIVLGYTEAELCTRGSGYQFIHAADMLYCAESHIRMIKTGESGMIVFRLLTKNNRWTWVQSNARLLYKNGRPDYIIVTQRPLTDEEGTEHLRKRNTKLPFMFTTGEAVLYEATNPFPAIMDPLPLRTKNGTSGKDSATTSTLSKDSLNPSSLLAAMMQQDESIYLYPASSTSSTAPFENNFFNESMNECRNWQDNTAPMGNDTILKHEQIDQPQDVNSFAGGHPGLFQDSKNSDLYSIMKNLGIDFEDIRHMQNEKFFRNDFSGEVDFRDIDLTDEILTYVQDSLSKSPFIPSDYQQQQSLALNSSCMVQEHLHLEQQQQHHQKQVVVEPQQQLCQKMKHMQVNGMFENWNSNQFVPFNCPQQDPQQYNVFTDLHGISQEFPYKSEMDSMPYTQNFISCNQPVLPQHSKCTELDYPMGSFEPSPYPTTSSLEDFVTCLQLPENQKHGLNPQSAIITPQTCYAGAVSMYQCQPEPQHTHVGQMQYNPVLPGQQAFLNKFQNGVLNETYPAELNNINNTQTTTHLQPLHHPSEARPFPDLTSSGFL
Test: AhR DRE-luciferase reporter transcriptional assay, antagonist mode (TCDD-induced)
Conditions: HEPG2 DRE-Luc cells, 3 nM TCDD, 24 hour incubation, relative IC50
Each entry below carries its reported IC50.

>  <Query smiles>
Cc1cc(N(C)C(=O)c2ccnn2C)ccc1-c1ncc2nc(C(F)(F)F)ccc2n1

>  <IC50>
< 200 nM

$$$$
>  <Query smiles>
Cc1cc(-c2ncc3nc(C(F)(F)F)cc(C)c3n2)ccc1N(C)C(=O)c1cc(C(N)=O)nn1CC(N)=O

>  <IC50>
1000 to 10000 nM

$$$$
>  <Query smiles>
Cc1cc(-c2ccc3cccc(C)c3n2)ccc1NC(=O)c1ccnn1C

>  <IC50>
< 200 nM

$$$$
>  <Query smiles>
Cc1cc(-c2ccc3cc(C(F)(F)F)ccc3n2)c(C)cc1NC(=O)c1nn(C)cc1C

>  <IC50>
1000 to 10000 nM

$$$$
>  <Query smiles>
Cc1cc(-c2ncc3cc(C(F)(F)F)ccc3n2)ccc1N(C)C(=O)c1nn(C)cc1C

>  <IC50>
200 to 500 nM

$$$$
>  <Query smiles>
Cc1cc(-c2nc(N)c3nc(C(F)(F)F)cc(C)c3n2)ccc1NC(=O)c1ccnn1C

>  <IC50>
< 200 nM

$$$$
>  <Query smiles>
Cc1cc(-c2ccc3cc(F)ccc3n2)ccc1NC(=O)c1ccno1

>  <IC50>
500 to 1000 nM

$$$$
>  <Query smiles>
Cc1cc(-c2ccc3cc(C(F)(F)F)ccc3n2)ccc1NC(=O)C(F)(F)F

>  <IC50>
1000 to 10000 nM

$$$$
